For each entry below, report its Population Apoptotic (%) value.
System: Fibroblast
Experiment: Multiplex assay against human fibroblast
Type: toxicity, cell-based
Details: 12 h, 10 µM, compound concentration 10 uM, replicate 2
One number for each entry, in %.

Reference set, count: 6
| compound | reading |
| --- | --- |
| CN1CCC[C@@H]1CCO[C@](C)(c1ccccc1)c1ccc(Cl)cc1.O=C(O)/C=C/C(=O)O [CLEMASTINE FUMARATE] | 85 |
| C=CC(=O)Nc1cc2c(Nc3ccc(F)c(Cl)c3)ncnc2cc1OCCCN1CCOCC1.Cl.Cl [CANERTINIB DIHYDROCHLORIDE] | 57 |
| COc1cc2nccc(Oc3ccc(NC(=O)Nc4cc(C)on4)c(Cl)c3)c2cc1OC.O | 71 |
| CN1CCN(c2ccc(OC(F)(F)F)c(Nc3ncc4c(n3)-c3c(c(C(N)=O)nn3CCO)CC4)c2)CC1 [ONVANSERTIB] | 40 |
| Cc1c(-c2ccc(O)cc2)n(Cc2ccc(OCCN3CCCCCC3)cc2)c2ccc(O)cc12 [BAZEDOXIFENE] | 60 |
| COc1ncc(-c2ccc3nccc(-c4ccnnc4)c3c2)cc1NS(=O)(=O)c1ccc(F)cc1F [OMIPALISIB] | 65 |

As a next step, examine the compound that follows.
# input I am curious: what Population Apoptotic (%) value has been reported for C=CC(=O)Nc1ccc2ncnc(Nc3ccc(OCc4cccc(F)c4)c(Cl)c3)c2c1.Cc1ccc(S(=O)(=O)O)cc1 ?
# output 75

* * *

Tested on: U2OS
Experiment: Multiplex assay against U2OS
Format: toxicity, cell-based
Details: human, 24 h, 1 µM, compound concentration 1 uM, replicate 2
metric.name: Population Membrane Permeable-Phenotype (%)
One number for each entry, in %.

Reference set, count: 2
| molecule | reading |
| --- | --- |
| Cn1cc(-c2[nH]c3cc(NC(=O)[C@H](N)C4CCCCC4)cc4c3c2C=NNC4=O)cn1 | 9 |
| Cc1nc(-c2cn3c(n2)-c2ccc(-c4cnn(C(C)(C)C(N)=O)c4)cc2OCC3)n(C(C)C)n1 [TASELISIB] | 21 |

// each listed molecule needs a value for Population Membrane Permeable-Phenotype (%)
1. CNc1nc(NCc2ccc(NS(C)(=O)=O)cc2Cl)cc(-c2ccccn2)n1
2. CC(C)NCC(O)COc1ccc(CCOCC2CC2)cc1.Cl (configuration not stated) [BETAXOLOL HYDROCHLORIDE]

# output
1: 0; 2: 4

// each listed molecule needs a value for Population Membrane Permeable-Phenotype (%)
1. Cc1nc(-c2ccc(-c3ccc(C(=O)N4CCc5cc6c(cc54)C4(CCN(C)CC4)CO6)cc3)c(C)c2)no1 [SB-224289]
2. COc1ncc(-c2ccc3nccc(-c4ccnnc4)c3c2)cc1NS(=O)(=O)c1ccc(F)cc1F [OMIPALISIB]
3. c1cn2cc(-c3ccc4cn[nH]c4c3)nc(Nc3ccc(N4CCOCC4)cc3)c2n1 [ENTOSPLETINIB]

# output
1. 6
2. 24
3. 17

* * *

Tested on: HEK-293T
Assay: Multiplex assay against HEK293T
Type: toxicity, cell-based
Conditions: human, 24 h, 1 µM, compound concentration 1 uM, replicate 2
metric.name: Population Healthy Nuclei (%)
Give bare numbers, in %.

Reference set, count: 3
| compound | unit.abbreviation | Population Healthy Nuclei (%) |
| --- | --- | --- |
| Cc1nc(-c2cn3c(n2)-c2ccc(-c4cnn(C(C)(C)C(N)=O)c4)cc2OCC3)n(C(C)C)n1 [TASELISIB] | % | 84 |
| Cn1cc(-c2[nH]c3cc(NC(=O)[C@H](N)C4CCCCC4)cc4c3c2C=NNC4=O)cn1 | % | 26 |
| CN1CCCC(n2nc(Cc3ccc(Cl)cc3)c3ccccc3c2=O)CC1.Cl (stereo not given) [AZELASTINE HYDROCHLORIDE] | % | 49 |

As a next step, examine the compound that follows.
# input I am curious: what Population Healthy Nuclei (%) value has been reported for CN(C)C(=O)N[C@H]1CC[C@H](CCN2CCN(c3cccc(Cl)c3Cl)CC2)CC1.Cl [CARIPRAZINE HYDROCHLORIDE] ?
# output 63

* * *

Test system: HEK-293T
Test: Multiplex assay against HEK293T;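 as to Population Tubulin-Different-Phenotype (%): share of the cells with healthy nuclei that show this phenotype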
Type: toxicity, cell-based
Details: human, 12 h, 10 µM, compound concentration 10 uM, replicate 1
metric.name: Population Tubulin-Different-Phenotype (%)
Numbers only, in %.

Reference set, count: 5
| molecule | target.entity | unit.abbreviation | reading |
| --- | --- | --- | --- |
| CC[C@H](C)C(=O)O[C@H]1C[C@@H](C)C=C2C=C[C@H](C)[C@H](CC[C@@H]3C[C@@H](O)CC(=O)O3)[C@H]21 | HEK-293T | % | 39 |
| Cl.N#Cc1ccc2[nH]cc(CCCCN3CCN(c4ccc5oc(C(N)=O)cc5c4)CC3)c2c1 [VILAZODONE HYDROCHLORIDE] | HEK-293T | % | 92 |
| Cc1nc(Nc2n[nH]c3c2CN(C(=O)N[C@H](CN(C)C)c2ccccc2)C3(C)C)c2sccc2n1 | HEK-293T | % | 45 |
| OC1(c2ccc(Cl)cc2)CCN(Cc2c[nH]c3ccccc23)CC1 | HEK-293T | % | 92 |
| c1cn2cc(-c3ccc4cn[nH]c4c3)nc(Nc3ccc(N4CCOCC4)cc3)c2n1 | HEK-293T | % | 81 |

// each listed molecule needs a value for Population Tubulin-Different-Phenotype (%)
1. Cc1csc2c(N[C@@H](C)CN3CCN(S(=O)(=O)c4ccc(Cl)c(Cl)c4)CC3)ncnc12
2. CN(C)C(=O)/C(C#N)=C/c1ccc(-c2nc3cnc4[nH]ccc4c3n2C2CCCCC2)o1
3. COc1cc2nccc(Oc3ccc(NC(=O)Nc4cc(C)on4)c(Cl)c3)c2cc1OC.O
4. CN1CCN(CCOc2cc(OC3CCOCC3)c3c(Nc4c(Cl)ccc5c4OCO5)ncnc3c2)CC1

# output
[80, 60, 97, 89]

# input I am curious: what Population Tubulin-Different-Phenotype (%) value has been reported for CN(C)C(=O)N[C@H]1CC[C@H](CCN2CCN(c3cccc(Cl)c3Cl)CC2)CC1.Cl [CARIPRAZINE HYDROCHLORIDE] ?
# output 98

* * *

For each entry below, report its Growth Rate value.
System: HEK-293T
Assay: Incucyte cell viability with HEK293T; also: filed as whole numbers so only -1 and 0 and 1 occur
Format: toxicity, cell-based
Details: human, 0 h, 10 µM, compound concentration 10 uM, replicate number 1, timepoint 0 hours

// each listed molecule needs a value for Growth Rate
1. O=C(O)c1ccc(-c2coc3ncc(-c4ccccc4)cc23)cc1Cl
2. C[C@@H](c1cccc(CN)c1)n1cc(Cl)cc(C(N)=O)c1=N.Cl
3. CN(C)[C@@H]1CCN(c2cc(-c3ccccc3)nc3ccnn23)C1 [(R)-ZINC-3573]

# output
0
0
0

// each listed molecule needs a value for Growth Rate
1. O=C(O)[C@@H]1[C@@H](Cn2nnc3ccccc3c2=O)CC[C@H]1C(=O)c1ccc(OCCC2CCOCC2)cc1 [BAY-694]
2. Cc1[nH]c(/C=C2\C(=O)Nc3ccc(S(=O)(=O)N(C)c4cccc(Cl)c4)cc32)c(C)c1C(=O)N1CCN(C)CC1
3. NC(=O)Nc1cc(-c2cccc(F)c2)sc1C(=O)N[C@H]1CCCNC1 [AZD-7762]
4. Nc1c(C(=O)NCc2ccc(C(=O)NCCCC3CCCCC3)cc2)cnn1-c1ccccc1 [SR-318]
5. CN1CCN(c2ccc(OC(F)(F)F)c(Nc3ncc4c(n3)-c3c(c(C(N)=O)nn3CCO)CC4)c2)CC1 [ONVANSERTIB]
6. CC(=O)C1=C(C)N(c2cccc(C(F)(F)F)c2)C(=O)N[C@H]1c1ccc(C#N)nc1 [BAY-677]

# output
[0, 0, 0, 0, 1, 0]

// each listed molecule needs a value for Growth Rate
1. CN(C)C(=O)/C(C#N)=C/c1ccc(-c2nc3cnc4[nH]ccc4c3n2C2CCCCC2)o1
2. COc1cc(-c2cn([C@H]3CCc4c(F)cccc4N(CC(F)(F)F)C3=O)nn2)ccc1-n1cnc(C)c1
3. O=S(=O)(c1ccccc1)N(CC(F)(F)F)c1ccc(C(O)(C(F)(F)F)C(F)(F)F)cc1 [T091317]

# output
0
0
0

// each listed molecule needs a value for Growth Rate
1. O=C(c1ccc(F)cc1)N1CC(COc2ccc(Br)cc2)(C(=O)O)C1 [PF-04475866]
2. CN([C@@H]1CCc2c(CC(=O)O)c3cc(S(C)(=O)=O)ccc3n2C1)S(=O)(=O)c1ccc(F)cc1 [CRTH2-negative-control]
3. COc1cc2c(cc1OCCCN1CCCC1)N=C(N)C21CCC1
4. OC1(c2ccc(Cl)cc2)CCN(Cc2c[nH]c3ccccc23)CC1
5. CCN(CC)CCCCNc1ncc2cc(-c3cc(OC)cc(OC)c3)c(NC(=O)NC(C)(C)C)nc2n1 [PD-173074]
6. Br.Br.N=C(N)SCCc1c[nH]cn1
7. CNC(=NCCSCc1csc(N=C(N)N)n1)NC#N [TIOTIDINE]
8. CC[C@H](C)C(=O)O[C@H]1C[C@@H](C)C=C2C=C[C@H](C)[C@H](CC[C@@H]3C[C@@H](O)CC(=O)O3)[C@H]21 [LOVASTATIN]

# output
[0, 1, 0, 1, 1, 1, 1, 0]

// each listed molecule needs a value for Growth Rate
1. COc1ccc(Oc2cc(NCCC(F)(F)F)c3ncc(-c4ccc(C(=O)NC5CC5)c(C)c4)n3n2)c(F)c1F [BAY-1217389]
2. CC[C@@H]1[C@H](F)C(=O)N[C@@H]1COc1nccc2cc(C(N)=O)c(OC)cc12 [ZIMLOVISERTIB]

# output
0
0

// each listed molecule needs a value for Growth Rate
1. COc1ccc(CNC(=O)c2cc(-c3cncc(Cl)c3)cnc2-c2ccccn2)nc1OC [MK-1064]
2. COc1ccc(C2(O)OC(=O)C(c3ccc4c(c3)OCO4)=C2Cc2cc(OC)c(OC)c(OC)c2)cc1 (configuration not stated) [PD-156707]
3. C[C@H](c1ccc(F)cc1)N(Cc1ccc(Cl)c(C(=O)O)c1)C(=O)c1cnc2ccccc2c1 [PF-05257137]

# output
[0, 0, 1]

// each listed molecule needs a value for Growth Rate
1. Cl.N#Cc1ccc2[nH]cc(CCCCN3CCN(c4ccc5oc(C(N)=O)cc5c4)CC3)c2c1 [VILAZODONE HYDROCHLORIDE]
2. CN(C)CC#Cc1ccc(OCCCc2sc(N3CCc4cccc(C(=O)Nc5nc6ccccc6s5)c4C3)nc2C(=O)O)c(F)c1 [A-1155463]

# output
1. 0
2. 0

Values compiled from ChEMBL document CHEMBL4689842.
